Below, each entry is listed alongside its reported viability, T/C.
# System: 439559-082-T-J2-PDC spheroids viability
# procedure summary: Anticancer human tumor 439559-082-T-J2-PDC patient-derived colon adenocarcinoma cell line growth inhibition [GQUAD]
# study conditions: second compound 0.1 µM; first compound 3.16 µM; stronger effect = lower value
# Excerpt: DNA G-quadruplex Stabilizer Agents in Combinations in Complex Spheroids A high-throughput screen of multi-cell type tumor spheroids was designed to identify active combinations of DNA G-quadruplex stabilizer agents and targeted small molecules. […] Compounds. […] If the clinical Cmax for an agent had not been determined, the highest concentration tested was 10 microM. […]
Provide only the numeric value, understood in %.

Recorded viability, T/C, per entry:
{"compound": "COc1cccc2c1C(=O)c1c(O)c3c(c(O)c1C2=O)CC(O)(C(=O)CO)CC3OC1CC(N)C(O)C(C)O1 (stereo not given) + CN(C)c1ccc(Nc2c3ccc(NC(=O)CCN4CCCC4)cc3nc3cc(NC(=O)CCN4CCCC4)ccc23)cc1", "viability, T/C [%]": 59.1}
{"compound": "CC1COCCN1c1cc(C2(S(C)(=N)=O)CC2)nc(-c2ccnc3[nH]ccc23)n1 (stereo not given) + Cc1[nH]c2ccc(F)cc2c1-c1nc2c3cccnc3c3ncccc3c2[nH]1", "viability, T/C [%]": 93.9}
{"compound": "COc1ccc([C@@H](O)c2cc(-c3ncnc4cc(N5CCOCC5)ccc34)c(F)cc2Cl)nn1 + Cc1[nH]c2ccc(F)cc2c1-c1nc2c3cccnc3c3ncccc3c2[nH]1", "viability, T/C [%]": 98}
{"compound": "O=c1[nH]cc(F)c(=O)[nH]1 + Cc1[nH]c2ccc(F)cc2c1-c1nc2c3cccnc3c3ncccc3c2[nH]1", "viability, T/C [%]": 73.3}
{"compound": "Nc1ccn(C2OC(CO)C(O)C2(F)F)c(=O)n1 (stereo not given) + Cc1[nH]c2ccc(F)cc2c1-c1nc2c3cccnc3c3ncccc3c2[nH]1", "viability, T/C [%]": 29.5}

Q. I am curious: what viability, T/C value has been reported for O=C(c1cc(Cc2n[nH]c(=O)c3ccccc23)ccc1F)N1CCN(C(=O)C2CC2)CC1 + Cc1cnc(CNC(=O)c2c(=O)c3ccc(N4CCCN(C)CC4)nc3n3c2sc2ccccc23)cn1 ?
A. 101

Q. I am curious: what viability, T/C value has been reported for CC1COCCN1c1cc(C2(O)CC3CCC(C2)O3)c2cnn(-c3ccn[nH]3)c2n1 (stereo not given) + Cc1[nH]c2ccc(F)cc2c1-c1nc2c3cccnc3c3ncccc3c2[nH]1 ?
A. 46.7

###

# Tested on: 439559-082-T-J2-PDC spheroids viability
# procedure summary: Anticancer human tumor 439559-082-T-J2-PDC cell line growth inhibition [GQUAD];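 also: spheroids exposed to the agents for 7 days before readout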
# study conditions: curve of first compound; second compound 0.316 µM
Below, each entry is listed alongside its reported pIC50.
// pIC50: -log10(molar conc.)

{"compound": "C#Cc1c(F)ccc2cc(O)cc(-c3ncc4c(N5CC6CCC(C5)N6)nc(OCC56CCCN5CC(F)C6)nc4c3F)c12 (stereo not given) + Cc1[nH]c2ccc(F)cc2c1-c1nc2c3cccnc3c3ncccc3c2[nH]1", "property label": "pIC50", "number": 5.82}

Attention now turns to another entry.
Q. I am curious: what pIC50 value has been reported for CC(C)(O)C1CCC(Nc2ccc3ncc(-c4cccc(C(F)(F)F)c4)n3n2)CC1 (stereo not given) + CN(C)c1ccc(Nc2c3ccc(NC(=O)CCN4CCCC4)cc3nc3cc(NC(=O)CCN4CCCC4)ccc23)cc1 ?
A. 5.74

###

# Test system: 439559-082-T-J2-PDC spheroids viability
# procedure summary: Anticancer human tumor 439559-082-T-J2-PDC cell line growth inhibition [GQUAD];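 also: spheroids exposed to the agents for 7 days before readout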;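 as to viability, T/C: percent of luminescence signal in DMSO vehicle wells taken as 100% viability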
# study conditions: second compound 0.316 µM; first compound 0.000999 µM; stronger effect = lower value
Below, each entry is listed alongside its reported viability, T/C.
Provide only the numeric value, understood in %.

Recorded viability, T/C, per entry:
{"compound": "Cn1ncnc1[C@H]1c2n[nH]c(=O)c3cc(F)cc(c23)N[C@@H]1c1ccc(F)cc1 + CN(C)c1ccc(Nc2c3ccc(NC(=O)CCN4CCCC4)cc3nc3cc(NC(=O)CCN4CCCC4)ccc23)cc1", "viability, T/C (%)": 99.6}
{"compound": "CC[C@@]1(O)C(=O)OCc2c1cc1n(c2=O)Cc2cc3c(CN(C)C)c(O)ccc3nc2-1 + CN(C)c1ccc(Nc2c3ccc(NC(=O)CCN4CCCC4)cc3nc3cc(NC(=O)CCN4CCCC4)ccc23)cc1", "viability, T/C (%)": 123}
{"compound": "CC[C@@]1(O)C(=O)OCc2c1cc1n(c2=O)Cc2cc3c(CN(C)C)c(O)ccc3nc2-1 + Cc1cnc(CNC(=O)c2c(=O)c3ccc(N4CCCN(C)CC4)nc3n3c2sc2ccccc23)cn1", "viability, T/C (%)": 79.7}
{"compound": "Cc1[nH]c2ccccc2c1CCNCc1ccc(/C=C/C(=O)NO)cc1 + Cc1cnc(CNC(=O)c2c(=O)c3ccc(N4CCCN(C)CC4)nc3n3c2sc2ccccc23)cn1", "viability, T/C (%)": 92.7}

Attention now turns to another entry.
Q. I am curious: what viability, T/C value has been reported for CCc1c2c(nc3ccc(O)cc13)-c1cc3c(c(=O)n1C2)COC(=O)[C@]3(O)CC + Cc1[nH]c2ccc(F)cc2c1-c1nc2c3cccnc3c3ncccc3c2[nH]1 ?
A. 109

###

# Test system: 439559-082-T-J2-PDC spheroids viability
# procedure summary: Anticancer human tumor 439559-082-T-J2-PDC cell line growth inhibition [GQUAD];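 also: spheroids exposed to the agents for 7 days before readout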;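 as to viability, T/C: percent of luminescence signal in DMSO vehicle wells taken as 100% viability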
# study conditions: second compound 0.0316 µM; first compound 1 µM; stronger effect = lower value
# Source text: DNA G-quadruplex Stabilizer Agents in Combinations in Complex Spheroids A high-throughput screen of multi-cell type tumor spheroids was designed to identify active combinations of DNA G-quadruplex stabilizer agents and targeted small molecules. […] Compounds. […] If the clinical Cmax for an agent had not been determined, the highest concentration tested was 10 microM. […]
property label: viability, T/C (%)
Provide only the numeric value, understood in %.

Recorded viability, T/C, per entry:
{"compound": "CC1COCCN1c1cc(C2(S(C)(=N)=O)CC2)nc(-c2ccnc3[nH]ccc23)n1 (stereo unspecified) + Cc1cnc(CNC(=O)c2c(=O)c3ccc(N4CCCN(C)CC4)nc3n3c2sc2ccccc23)cn1", "number": 89.6}
{"compound": "O=c1[nH]cc(F)c(=O)[nH]1 + Cc1cnc(CNC(=O)c2c(=O)c3ccc(N4CCCN(C)CC4)nc3n3c2sc2ccccc23)cn1", "number": 74.5}
{"compound": "O=c1[nH]cc(F)c(=O)[nH]1 + CN(C)c1ccc(Nc2c3ccc(NC(=O)CCN4CCCC4)cc3nc3cc(NC(=O)CCN4CCCC4)ccc23)cc1", "number": 81.2}

Q. I am curious: what viability, T/C value has been reported for C#Cc1c(F)ccc2cc(O)cc(-c3ncc4c(N5CC6CCC(C5)N6)nc(OCC56CCCN5CC(F)C6)nc4c3F)c12 (stereo unspecified) + Cc1[nH]c2ccc(F)cc2c1-c1nc2c3cccnc3c3ncccc3c2[nH]1 ?
A. 71.9

Q. I am curious: what viability, T/C value has been reported for C=CCn1c(=O)c2cnc(Nc3ccc(N4CCN(C)CC4)cc3)nc2n1-c1cccc(C(C)(C)O)n1 + Cc1[nH]c2ccc(F)cc2c1-c1nc2c3cccnc3c3ncccc3c2[nH]1 ?
A. 101

Q. I am curious: what viability, T/C value has been reported for CC(C)(O)C1CCC(Nc2ccc3ncc(-c4cccc(C(F)(F)F)c4)n3n2)CC1 (stereo unspecified) + Cc1cnc(CNC(=O)c2c(=O)c3ccc(N4CCCN(C)CC4)nc3n3c2sc2ccccc23)cn1 ?
A. 77.2

Q. I am curious: what viability, T/C value has been reported for CC1COCCN1c1cc(C2(S(C)(=N)=O)CC2)nc(-c2ccnc3[nH]ccc23)n1 (stereo unspecified) + Cc1[nH]c2ccc(F)cc2c1-c1nc2c3cccnc3c3ncccc3c2[nH]1 ?
A. 106

Q. I am curious: what viability, T/C value has been reported for COc1cc(C2c3cc4c(cc3C(OC3OC5COC(C)OC5C(O)C3O)C3COC(=O)C23)OCO4)cc(OC)c1O (stereo unspecified) + Cc1[nH]c2ccc(F)cc2c1-c1nc2c3cccnc3c3ncccc3c2[nH]1 ?
A. 87.8

Q. I am curious: what viability, T/C value has been reported for CCCS(=O)(=O)Nc1ccc(F)c(C(=O)c2c[nH]c3ncc(-c4ccc(Cl)cc4)cc23)c1F + Cc1cnc(CNC(=O)c2c(=O)c3ccc(N4CCCN(C)CC4)nc3n3c2sc2ccccc23)cn1 ?
A. 101

Q. I am curious: what viability, T/C value has been reported for CC1COCCN1c1cc(C2(S(C)(=N)=O)CC2)nc(-c2ccnc3[nH]ccc23)n1 (stereo unspecified) + CN(C)c1ccc(Nc2c3ccc(NC(=O)CCN4CCCC4)cc3nc3cc(NC(=O)CCN4CCCC4)ccc23)cc1 ?
A. 86.8

Q. I am curious: what viability, T/C value has been reported for COc1cccc2c1C(=O)c1c(O)c3c(c(O)c1C2=O)CC(O)(C(=O)CO)CC3OC1CC(N)C(O)C(C)O1 (stereo unspecified) + Cc1[nH]c2ccc(F)cc2c1-c1nc2c3cccnc3c3ncccc3c2[nH]1 ?
A. 82.1
